- targetOrTestSystem: T1, anti-CD28 Fab (SEQ ID NOs: 202, 203)
- T1 construct: biotinylated and captured on neutravidin coated plates in the phage ELISA
- T1 sequence (VH, as listed by the source, chain 1 of 2): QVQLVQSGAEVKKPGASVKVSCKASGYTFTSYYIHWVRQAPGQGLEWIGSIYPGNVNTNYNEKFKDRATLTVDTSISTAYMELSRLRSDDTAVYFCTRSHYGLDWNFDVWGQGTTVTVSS
- T1 sequence (VL, as listed by the source, chain 2 of 2): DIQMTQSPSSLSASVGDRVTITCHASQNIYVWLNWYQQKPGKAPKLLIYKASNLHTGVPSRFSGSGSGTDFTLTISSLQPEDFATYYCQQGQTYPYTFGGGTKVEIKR
- protocolNotes: phage binding ELISA on captured Fab, competitor CD28 antigen
For each of the binders below, state its Anti-CD28 Fab signal in the presence of CD28.
# respond with the number and nothing more

# Anti-CD28 Fab signal in the presence of CD28 lookup, item LCNAGATYSWPTCL [Phage-940]
0.06

Moving on to the next binder: LCAAGAHYPWPQCL [Phage-937]
0.07

Moving on to the next binder: TCSAGATYTWSKCF [Phage-939]
0.06

Moving on to the next binder: RCSAGFHYPLSLCL [Phage-933]
0.06

Moving on to the next binder: MCAAGFHYPWPACL [Phage-927]
0.1

Moving on to the next binder: TCAAGATYAWPYCV [Phage-929]
0.09

Moving on to the next binder: TCAAGAAYPWPLCF [Phage-930]
0.11

Entry source: patent US20260274955A1
